Tested on: OVCAR-4 ovarian
Assay: NCI tumour cell line growth inhibition, 48 h
Collected TGI values appear next to each entry.

Reference set (2 entries):
Molecule | TGI
Cc1nc2c(nc1C)-c1c(c3c(n1C)C(=O)CCC3)C(=O)C2=O | 0.279 µM
Clc1ccc(C2=Nn3c(nnc3-c3cc(Cl)cc(Cl)c3Cl)SC2)cc1 | > 100 µM

Next molecule, please.
So for CCCCCCCCCc1cc[n+](CC(=O)c2ccc([N+](=O)[O-])cc2)cc1 , the logged TGI turned out to be 2.57 µM

---

Collected TGI values appear next to each entry.
Test system: OVCAR-5 ovarian
Test: NCI tumour cell line growth inhibition, 48 h
Quick note: give the figure in µM, leave out the unit.

Compound | System | Readout units | Experimental value
COc1cc2c3c(n(CCCNCCCNCCCNCCCN)c(=O)c2cc1OC)-c1cc2c(cc1C3=O)OCO2 | OVCAR-5 ovarian | µM | 5.63

Next compound, please.
So for O=c1[nH]c2cc([N+](=O)[O-])ccc2nc1/C(=N/Nc1ccccc1)C(O)c1ccc(C(O)/C(=N\Nc2ccccc2)c2cnc3cc([N+](=O)[O-])ccc3n2)cc1 (stereo not given) , the logged TGI turned out to be 72.9
